Hey, just so you know, these numbers are from patent US8293729B2.

Biological target: human GPR119 receptor (Homo sapiens, UniProt Q8TDV5, S329A/T327A)
Construct: N-terminal leader […]; expressed in transfected cells
Sequence (Q8TDV5 with tags, fused parts or gaps T327A/S329A): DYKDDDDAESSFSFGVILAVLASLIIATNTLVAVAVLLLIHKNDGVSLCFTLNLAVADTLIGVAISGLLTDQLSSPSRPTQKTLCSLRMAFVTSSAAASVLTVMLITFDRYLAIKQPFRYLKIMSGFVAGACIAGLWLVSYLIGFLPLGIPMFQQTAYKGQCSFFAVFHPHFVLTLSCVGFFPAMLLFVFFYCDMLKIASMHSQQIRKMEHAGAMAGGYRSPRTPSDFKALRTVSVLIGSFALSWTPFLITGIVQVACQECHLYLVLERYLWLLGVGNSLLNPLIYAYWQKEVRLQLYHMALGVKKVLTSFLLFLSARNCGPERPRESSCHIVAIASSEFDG
Test: cAMP assay (LANCE cAMP-384) in HEK293 cells stably expressing mutant human GPR119 receptor
Assay type: cell-based
Conditions: cAMP accumulation, HEK293 cells stably expressing mutant human GPR119; read-out: EC50
Test readout: EC50

- CC(C)OC(=O)N1CCC(ON=C2CCN(c3nncs3)CC2)CC1: > 10 µM
- CC(C)OC(=O)N1CCC(ON=C2CCN(c3nccc(N(C)C)n3)CC2)CC1: > 10 µM
- CC(C)OC(=O)N1CCC(ON=C2CCN(c3cc(F)c(CN4CCCC4)cc3F)CC2)CC1: 7.83 µM
- CC(C)OC(=O)N1CCC(ON=C2CCN(c3cc(F)c(-c4ccncc4)cc3F)CC2)CC1: 0.378 µM
